- Tested on: HOP-62 NSCLC
- EXPERIMENT SUMMARY: NCI-60 one-dose screen, 48 h (100 = growth as untreated, 0 = no growth, -100 = all killed)
- ASSAY CONTEXT: 10 µM
Compounds without any hit were thinned out: in the full panel of roughly 83,000, 20% have a hit.
Field: class. Source value: growth. Ranges: bin 0: < 20%; bin 1: ≥ 20% and < 60%; bin 2: ≥ 60%

Task item: Looking at Cc1c[nH]c(=O)n(Cc2nnc(CCC(=O)c3nc4ccccc4[nH]3)o2)c1=O , which class would you pick?
Reply: bin 0

Task item: Looking at COc1ccc(-c2n[nH]nc2-c2cc(OC)c(OC)c(OC)c2)cc1 , which class would you pick?
Reply: bin 1

Task item: Looking at CCOC(=O)c1cc(C(=O)c2cc(OC)cc(OC)c2)n2nc(C)ccc12 , which class would you pick?
Reply: bin 1

Task item: Looking at CCOC(=O)c1cc(C(=O)c2cc(OC)c(OC)c(OC)c2)n2c1ccc1c3cccnc3ccc12 , which class would you pick?
Reply: bin 2

Task item: Looking at O=C(CCn1cnc2c(cc(-c3ccccc3)n2-c2ccccc2)c1=O)Nc1ccc(F)cc1 , which class would you pick?
Reply: bin 0

Task item: Looking at COc1cc(/C=C2\CCCC3=C2NC(N)=NC3c2cc(OC)c(OC)c(OC)c2)cc(OC)c1OC (centres undefined) , which class would you pick?
Reply: bin 0

Task item: Looking at COc1ccc(-c2cc(-c3ccc(Cl)cc3)nc(SCCCC(=O)NO)n2)cc1OC , which class would you pick?
Reply: bin 0

Task item: Looking at O=C(O)c1ccc(-n2cc(CNc3ccc(Cl)cc3)c(-c3ccccc3)n2)cc1 , which class would you pick?
Reply: bin 2

Task item: Looking at CN(C)CCOc1ccc(-c2nc3sccn3c2-c2ccnc(S(C)(=O)=O)n2)cc1 , which class would you pick?
Reply: bin 2

---

- System: U251 CNS
- EXPERIMENT SUMMARY: NCI-60 one-dose screen, 48 h
- ASSAY CONTEXT: 10 µM
Compounds without any hit were thinned out: in the full panel of roughly 83,000, 20% have a hit. Active and inactive are the calls of the source. Rule for the calls: active = growth percent below 10; inactive = the rest.
Pick one and only one: TRUE = active, FALSE = inactive

Task item: Check the results log: what was the call for Clc1nc2ccccc2cc1Cn1nnc(Cc2ccccc2)n1 ?
Reply: FALSE

Task item: Check the results log: what was the call for Cc1cc(Br)nnc1Br ?
Reply: FALSE

Task item: Check the results log: what was the call for O=C(Nc1cc(Cl)cc2c1-c1ccc(Cl)cc1C2O)C(Cl)Cl (centres undefined) ?
Reply: FALSE

Task item: Check the results log: what was the call for CCOC(=O)Cn1c(=O)c2sc3ncccc3c2n2nnc(-c3ccccc3)c12 ?
Reply: FALSE

Task item: Check the results log: what was the call for CC1OC2CC(=O)OC2C2=C1C(=O)c1c(O)c3c(c(O)c1C2=O)C1CC(O)C3(O)C(C)O1 (centres undefined) ?
Reply: TRUE

Task item: Check the results log: what was the call for Nc1ccc(CC[C@H]2CCC/C=C/[C@@H]3C[C@H](O)C[C@H]3[C@H](O)/C=C/C(=O)O2)cc1 ?
Reply: FALSE

Task item: Check the results log: what was the call for CN(C)CCOc1ccc(-c2nc3sccn3c2-c2ccnc(S(C)(=O)=O)n2)cc1 ?
Reply: FALSE

Task item: Check the results log: what was the call for CC[C@@H](C(=O)[C@H](C)[C@H](O)[C@@H](C)[C@H]1O[C@H]([C@@H](CC)C(=O)N(CC)CC)CC[C@H]1C)C1O[C@]2(C=C[C@@H](O)[C@]3(CC[C@@](C)([C@H]4CC[C@](O)(CC)[C@H](C)O4)O3)O2)[C@H](C)C[C@@H]1C (some centres undefined) ?
Reply: FALSE

Task item: Check the results log: what was the call for COc1ccc2nc3cc(Cl)ccc3c(N)c2c1 ?
Reply: TRUE

---

- System: SF-268 CNS
- EXPERIMENT SUMMARY: NCI-60 one-dose screen, 48 h (100 = growth as untreated, 0 = no growth, -100 = all killed)
- ASSAY CONTEXT: 10 µM
The panel holds about 83,000 compounds, 20% with a hit somewhere; the sample as a whole holds those more often.
MEASUREMENT LABEL: growth (%)
The reply should be a number in %, with the unit left off.

Task item: Fill in: growth on SF-268 CNS, entry COc1ccc(-c2nn(-c3cccc(Cl)c3)cc2-c2cc(-c3ccccc3)[nH]c(=O)c2C#N)cc1
Reply: 34.8

Task item: Fill in: growth on SF-268 CNS, entry COc1cc(/C=C/c2cc(/C=C/c3ccc(O)c(OC)c3)[nH]c(=O)n2)ccc1O
Reply: 48.2

Task item: Fill in: growth on SF-268 CNS, entry CNS(=O)(=O)Oc1ccc(-c2ccc3occc3c2)cc1
Reply: 102

Task item: Fill in: growth on SF-268 CNS, entry O=[N+]([O-])c1ccc(/C(=C/c2ccccc2)[n+]2ccccc2)cc1
Reply: 128

Task item: Fill in: growth on SF-268 CNS, entry CCn1cc(C(=O)O)c(=O)c2cc(F)c(N3CCNCC3)cc21
Reply: 103

---

- Test system: SF-539 CNS
- EXPERIMENT SUMMARY: NCI-60 one-dose screen, 48 h (100 = growth as untreated, 0 = no growth, -100 = all killed)
- ASSAY CONTEXT: 10 µM
About 83,000 compounds went through this panel and 20% of them were active in at least one assay; those are over-represented in the sample as a whole. Active and inactive are the calls of the source. The calls were made as follows: active = growth percent below 10; inactive = the rest.
Would you kindly list growth for each of these compounds?

Task item: Using the record for Clc1nc2ccc(Br)cc2cc1-c1nc2ccccc2[nH]1 , state its measured growth.
Reply: 107% (inactive)

Task item: Using the record for CCCc1nc(C(C)(C)O)c(C(=O)O)n1Cc1ccc(-c2ccccc2-c2nn[nH]n2)cc1 , state its measured growth.
Reply: 103% (inactive)

Task item: Using the record for N#CC1=CC2CN(Cc3ccccc3)C1C1C(=O)N(c3ccccc3)C(=O)C21 (stereo unspecified) , state its measured growth.
Reply: 98.5% (inactive)

Task item: Using the record for CC(C)(C)OC(=O)N1CCc2c(sc3ncnc(N/N=C/c4cccc(Br)c4)c23)C1 , state its measured growth.
Reply: 53.3% (inactive)

Task item: Using the record for Nc1nc(Cl)nc2c1ncn2C1O[C@H](CO)[C@@H](O)[C@@H]1F (stereo partly specified) , state its measured growth.
Reply: 37.7% (inactive)

Task item: Using the record for CCN(CC)c1ccc(/C=C2\SC(=O)C(Nc3nnc(-c4cccnc4SCc4ccccc4)o3)C2=O)cc1 (stereo unspecified) , state its measured growth.
Reply: 13.8% (inactive)

Task item: Using the record for CCN(CC)CCOc1cccc2c1C(=O)c1ccccc1C2=O , state its measured growth.
Reply: 99.7% (inactive)

Task item: Using the record for CCNc1nc(C(F)(F)F)nc2c1sc(=S)n2-c1ccccc1 , state its measured growth.
Reply: 101% (inactive)

Task item: Using the record for NS(=O)(=O)Oc1ccc(NC(=O)C2CCCCCC2)cc1 , state its measured growth.
Reply: 98.3% (inactive)

Task item: Using the record for NC1=CC(=O)C(=O)c2cccnc21 , state its measured growth.
Reply: 101% (inactive)

Task item: Using the record for Cc1ccc(Cl)cc1NC(=O)CCl , state its measured growth.
Reply: 102% (inactive)

---

- Test system: KM12 colon
- EXPERIMENT SUMMARY: NCI-60 one-dose screen, 48 h (100 = growth as untreated, 0 = no growth, -100 = all killed)
- ASSAY CONTEXT: 10 µM
This is part of a sample that, as a whole, favours compounds with a hit. Of some 83,000 tested, about 20% had one in any assay.
We label by threshold. Values of growth strictly beneath 70% are t. Values of 70% and up are f.

Task item: A record lists CC(=O)Nc1ccc2c(c1)C(=O)c1cccc(C(=O)O)c1-2 . Is its growth below 70%?
Reply: f

Task item: A record lists O=C1c2ccccc2C(=O)N1CCCCNc1ccccc1 . Is its growth below 70%?
Reply: t

Task item: A record lists CCOC(=O)c1sc2ncnc(Nc3ccc4c(cnn4C(=O)Nc4ccccc4)c3)c2c1C . Is its growth below 70%?
Reply: t

Task item: A record lists COc1cc(-c2nn(-c3cccc(NC(=O)NCCNC(=O)c4cccc(C(F)(F)F)c4)c3)cc2-c2ccncc2)ccc1Cl . Is its growth below 70%?
Reply: t

Task item: A record lists CC(=O)C1N=NCC1c1ccccc1 (stereo not given) . Is its growth below 70%?
Reply: f

---

- Tested on: U251 CNS
- EXPERIMENT SUMMARY: NCI-60 one-dose screen, 48 h
- ASSAY CONTEXT: 10 µM
Compounds without any hit were thinned out: in the full panel of roughly 83,000, 20% have a hit. Activity calls are given as the source filed them. Rule for the calls: active = growth percent below 10; inactive = the rest.
Pick one and only one: active, inactive

Task item: Check the results log: what was the call for O=C(O)c1cn(C2CC2)c2cc(N3CCN(C(=O)c4cc(-c5ccc(Cl)cc5)nc5ccccc45)CC3)c(F)cc2c1=O ?
Reply: inactive

Task item: Check the results log: what was the call for O=C(Nc1ccccc1)Nc1ncnc2c1ncn2-c1ccccc1 ?
Reply: inactive

Task item: Check the results log: what was the call for Cc1c(C(N)=O)sc2c1c(=O)n(Cc1ccccc1)c1nnc(-c3ccc(Br)cc3)n21 ?
Reply: inactive

Task item: Check the results log: what was the call for CN(C)CCOc1ccccc1NC1=C(Cl)C(=O)C(Nc2ccccc2OCCN(C)C)=C(Cl)C1=O ?
Reply: inactive

Task item: Check the results log: what was the call for Brc1ccc2c(c1)-c1ccccc1C1=NCCN12 ?
Reply: active

Task item: Check the results log: what was the call for Cc1nn(-c2ccc(-c3ccc(OC(F)(F)F)cc3)cc2)c2nc(Cc3ccccc3)nc(N)c12 ?
Reply: inactive

Task item: Check the results log: what was the call for O=c1oc2c(cc1-c1ccc(F)cc1)C(O)Oc1ccccc1-2 (stereo unspecified) ?
Reply: inactive

Task item: Check the results log: what was the call for O=C(CCn1cnc2c(cc(-c3ccccc3)n2-c2ccccc2)c1=O)Nc1ccc(F)cc1 ?
Reply: inactive

Task item: Check the results log: what was the call for COCCn1cc(-c2nc(-c3cccnc3)cs2)c2cc(F)ccc21 ?
Reply: inactive

Task item: Check the results log: what was the call for N#CCc1csc(Cc2ccccc2)n1 ?
Reply: inactive

Task item: Check the results log: what was the call for COc1ccc(/C=C2\CCCC3=C2NC(N)=NC3c2ccc(OC)c(OC)c2)cc1OC (stereo unspecified) ?
Reply: inactive

Task item: Check the results log: what was the call for O=C(O)Cc1ccc(O)c(O)c1 ?
Reply: inactive

Task item: Check the results log: what was the call for COc1ccc(C(=O)CC(CC(=O)c2ccc(OC)cc2)c2c(C)nn(-c3ccccc3)c2Cl)cc1 ?
Reply: inactive

Task item: Check the results log: what was the call for COc1cc(-c2nc3ccccc3o2)cc(CN2CCCCC2)c1O ?
Reply: inactive

Task item: Check the results log: what was the call for COc1ccc(CCN2CCC(Nc3nc4ccccc4n3Cc3ccc(F)cc3)CC2)cc1 ?
Reply: active

Task item: Check the results log: what was the call for CCOC(=O)c1cc(C(=O)c2ccc(OC)c(OC)c2)n2c1ccc1ccc3cccnc3c12 ?
Reply: inactive

Task item: Check the results log: what was the call for O=S(=O)(Oc1ccc(-c2ccc3sccc3c2)cc1)c1ccccc1 ?
Reply: inactive

Task item: Check the results log: what was the call for CC(=O)COc1ccc(Cl)cc1Cl ?
Reply: inactive

Task item: Check the results log: what was the call for CS(=O)(=O)c1nccc(-c2c(-c3cccc(O)c3)nc3sccn23)n1 ?
Reply: inactive

Task item: Check the results log: what was the call for Clc1nc2ccc(Br)cc2cc1-c1nc2ccccc2[nH]1 ?
Reply: inactive

Task item: Check the results log: what was the call for S=c1cnc2ccccc2[nH]1 ?
Reply: inactive

Task item: Check the results log: what was the call for N#Cc1c(-c2ccc(Cl)cc2)cc(-c2cc(O)ccc2O)nc1N ?
Reply: active

Task item: Check the results log: what was the call for COc1cc2nc(SCC(=O)Nc3cc(OC)c(OC)c(OC)c3)n(Cc3ccccc3)c(=O)c2cc1OC ?
Reply: active

Task item: Check the results log: what was the call for COc1ccc(-c2cc(-c3ccc(OC)c(OC)c3)nc(SCCCC(=O)NO)n2)cc1 ?
Reply: active

Task item: Check the results log: what was the call for COc1cc(-c2ccc(N=Nc3ccc4c(S(=O)(=O)O)ccc(N)c4c3O)c(OC)c2)ccc1N=Nc1ccc2c(S(=O)(=O)O)ccc(N)c2c1O ?
Reply: inactive

Task item: Check the results log: what was the call for S=C(NCc1ccccc1)NCc1ccccc1 ?
Reply: inactive

Task item: Check the results log: what was the call for COc1ccc(/C=C2\CCCC3C2=Nc2ccccc2NC3c2ccc(OC)cc2)cc1 (stereo unspecified) ?
Reply: inactive

Task item: Check the results log: what was the call for CC(C)c1cc(N=O)cc(C(C)C)c1O ?
Reply: inactive

Task item: Check the results log: what was the call for CC(C)(C)OC(=O)CN1CCc2c(sc3ncnc(N/N=C/c4ccccc4Br)c23)C1 ?
Reply: inactive

Task item: Check the results log: what was the call for COc1cc(/C=C/c2cc(/C=C/c3ccc(O)c(OC)c3)[nH]c(=O)n2)ccc1O ?
Reply: inactive

Task item: Check the results log: what was the call for CC(=O)Nc1ccc(CC[C@H]2CCC/C=C/[C@@H]3C[C@H](O)C[C@H]3[C@H](O)/C=C/C(=O)O2)cc1 ?
Reply: inactive

Task item: Check the results log: what was the call for O=C(N/N=C/c1cc([N+](=O)[O-])ccc1O)c1cccc2ccccc12 ?
Reply: inactive

Task item: Check the results log: what was the call for CC(C)c1ccc(C(C)C(=O)N(CC2=C(C(C)c3ccccn3)c3ccccc3C2)C(C)C)cc1 (stereo unspecified) ?
Reply: inactive

Task item: Check the results log: what was the call for Cc1cc(SC#N)cc(C(C)(C)C)c1O ?
Reply: inactive

Task item: Check the results log: what was the call for O=C(CCCCNC(=O)c1nc(-c2ccccc2)n(-c2ccccc2)n1)NO ?
Reply: inactive

Task item: Check the results log: what was the call for CC(C1=C(CN(C(=O)Cc2cn(-c3ccccc3)nc2-c2ccc(Cl)cc2)C(C)C)Cc2ccccc21)c1ccccn1 (stereo unspecified) ?
Reply: inactive

Task item: Check the results log: what was the call for CC(=O)OC1CC2C(C)(C)CCC[C@]2(C)C2=C1C(O)=C(C(C)C)C(=O)C2=O (stereo partly specified) ?
Reply: inactive

Task item: Check the results log: what was the call for CNC(=O)c1cn(C2CC2)c2cc(N3CCN(C(=O)c4cc(OC)c(OC)c(OC)c4)CC3)c(F)cc2c1=O ?
Reply: inactive

Task item: Check the results log: what was the call for Cc1c[nH]c(=O)n(Cc2nnc(CCC(=O)c3nc4ccccc4[nH]3)o2)c1=O ?
Reply: inactive

Task item: Check the results log: what was the call for COc1cc(/C=C/c2cc(/C=C/c3ccc(O)c(OC)c3)n(C(=O)Nc3ccc(C)cc3)n2)ccc1O ?
Reply: active

Task item: Check the results log: what was the call for OCC1OC(n2cnc3c(NCc4ccco4)ncnc32)C(O)C1O (stereo unspecified) ?
Reply: inactive
